# assay.target: HLA-A*02:01 (Homo sapiens, UniProt P04439, D140Y/D185E/D98H/E176V/E277Q/G131W/G231S/I119V/I121R/I166T/I218V/L300P/L318F/N151K/N90K/P208A/P217A/Q86G/Q94H/R138H/R169H/T345S)
# experiment: MHC binding assay: UV-ligand exchange with β2m ELISA
# experimental.context: binding to HLA-A*02:01
# Source text: Candidate peptides for T cell based therapies according to the present invention were further tested for their MHC binding capacity (affinity). The individual peptide-MHC complexes were produced by UV-ligand exchange, where a UV-sensitive peptide is cleaved upon UV-irradiation, and exchanged with the peptide of interest as analyzed. Only peptide candidates that can effectively bind and stabilize the peptide-receptive MHC molecules prevent dissociation of the MHC complexes. […]
Square brackets hold non-standard residues; d marks the D form. Ends that are not written are not given here. pT = C[C@@H](OP(=O)(O)O)[C@H](N)C(=O)O
assay.endpoint: Peptide Exchange (MHC class I binding score, peptide exchange yield)

Example sequences with recorded Peptide Exchange (MHC class I binding score, peptide exchange yield):
{"sequence.entry": "SLADAVEKV (listed as Homo sapiens) [SEQ ID NO: 23]", "recorded.value": "“+++” (≥50 = +++)"}
{"sequence.entry": "FLVEHVLTL (listed as Homo sapiens) [SEQ ID NO: 42]", "recorded.value": "“++++” (≥75% = ++++)"}
{"sequence.entry": "ILTELPPGV (listed as Homo sapiens) [SEQ ID NO: 33]", "recorded.value": "“++” (≥20% = ++)"}
{"sequence.entry": "FSFPVSVGV (listed as Homo sapiens) [SEQ ID NO: 20]", "recorded.value": "“+++” (≥50 = +++)"}
{"sequence.entry": "FIIPTVATA (listed as Homo sapiens) [SEQ ID NO: 7]", "recorded.value": "“++++” (≥75% = ++++)"}
{"sequence.entry": "GLLGFQAEA (listed as Homo sapiens) [SEQ ID NO: 24]", "recorded.value": "“++++” (≥75% = ++++)"}
{"sequence.entry": "SLVEGEAVHLA (listed as Homo sapiens) [SEQ ID NO: 4]", "recorded.value": "“++” (≥20% = ++)"}
{"sequence.entry": "ALAGSSPQV (listed as Homo sapiens) [SEQ ID NO: 2]", "recorded.value": "“+++” (≥50 = +++)"}
{"sequence.entry": "YILLQSPQL (listed as Homo sapiens) [SEQ ID NO: 18]", "recorded.value": "“+++” (≥50 = +++)"}
{"sequence.entry": "SLFSVPFFL (listed as Homo sapiens) [SEQ ID NO: 28]", "recorded.value": "“++++” (≥75% = ++++)"}

Challenge: Record request: Peptide Exchange (MHC class I binding score, peptide exchange yield) value, item SLLTEPALV (listed as Homo sapiens) [SEQ ID NO: 21]
Response given: “+++” (≥50 = +++)

Challenge: Record request: Peptide Exchange (MHC class I binding score, peptide exchange yield) value, item LLMUVAGLKL (LLM[pT]VAGLKL; listed as Homo sapiens) [SEQ ID NO: 38, U = phospho-threonine]
Response given: “++++” (≥75% = ++++)

Challenge: Record request: Peptide Exchange (MHC class I binding score, peptide exchange yield) value, item KQLELELEV (listed as Homo sapiens) [SEQ ID NO: 14]
Response given: “+++” (≥50 = +++)

Challenge: Record request: Peptide Exchange (MHC class I binding score, peptide exchange yield) value, item KLYEGIPVL (listed as Homo sapiens) [SEQ ID NO: 13]
Response given: “++” (≥20% = ++)

Challenge: Record request: Peptide Exchange (MHC class I binding score, peptide exchange yield) value, item KAFPFYNTV (listed as Homo sapiens) [SEQ ID NO: 12]
Response given: “++” (≥20% = ++)

Challenge: Record request: Peptide Exchange (MHC class I binding score, peptide exchange yield) value, item SMMGLLTNL (listed as Homo sapiens) [SEQ ID NO: 16]
Response given: “++++” (≥75% = ++++)

Challenge: Record request: Peptide Exchange (MHC class I binding score, peptide exchange yield) value, item ALEAUQLYL (ALEA[pT]QLYL; listed as Homo sapiens) [SEQ ID NO: 29, U = phospho-threonine]
Response given: “+++” (≥50 = +++)

Challenge: Record request: Peptide Exchange (MHC class I binding score, peptide exchange yield) value, item SLLSEIQAL (listed as Homo sapiens) [SEQ ID NO: 35]
Response given: “++++” (≥75% = ++++)

Challenge: Record request: Peptide Exchange (MHC class I binding score, peptide exchange yield) value, item ALEEQLHQV (listed as Homo sapiens) [SEQ ID NO: 19]
Response given: “++” (≥20% = ++)

Challenge: Record request: Peptide Exchange (MHC class I binding score, peptide exchange yield) value, item GLHSLPPEV (listed as Homo sapiens) [SEQ ID NO: 10]
Response given: “+++” (≥50 = +++)

Challenge: Record request: Peptide Exchange (MHC class I binding score, peptide exchange yield) value, item GLSYIYNTV (listed as Homo sapiens) [SEQ ID NO: 31]
Response given: “++” (≥20% = ++)

Challenge: Record request: Peptide Exchange (MHC class I binding score, peptide exchange yield) value, item GLVATLQSL (listed as Homo sapiens) [SEQ ID NO: 32]
Response given: “+++” (≥50 = +++)

Challenge: Record request: Peptide Exchange (MHC class I binding score, peptide exchange yield) value, item GLLPTSVSPRV (listed as Homo sapiens) [SEQ ID NO: 11]
Response given: “++” (≥20% = ++)

Challenge: Record request: Peptide Exchange (MHC class I binding score, peptide exchange yield) value, item KLLDMELEM (listed as Homo sapiens) [SEQ ID NO: 39]
Response given: “++++” (≥75% = ++++)

Challenge: Record request: Peptide Exchange (MHC class I binding score, peptide exchange yield) value, item TLLGLAVNV (listed as Homo sapiens) [SEQ ID NO: 36]
Response given: “++++” (≥75% = ++++)

Challenge: Record request: Peptide Exchange (MHC class I binding score, peptide exchange yield) value, item KMPEHISTV (listed as Homo sapiens) [SEQ ID NO: 1]
Response given: “+++” (≥50 = +++)
